Cited source for all entries: the array DNA melting data of Ke et al. (doi:10.1101/2024.01.08.574731)

test: folding enthalpy; higher = less favourable; fluorescence melt of hairpins on a sequencing array, two-state fit; conditions: sodium 0.088 M
measuredParameter: folding enthalpy (kcal/mol)
The reply should contain only the number, in kcal/mol.

Q) Answer with reported folding enthalpy of GAAAACGAAAGTTTTTTC ((((((....)))..)))
A) -20.7

Q) Tell me measured folding enthalpy for GGATACGGAAACGTATTC (.(((((....))))).) please.
A) -24.8

Q) Using the record for GACGACCGAAAGGTGTC (((.(((....)))))) , state its measured folding enthalpy.
A) -26.5

Q) Answer with reported folding enthalpy of GATCCCCTACGGGATC ((((((....))))))
A) -35.3

Q) Give the reported folding enthalpy for this sequence. GTACGGAAACGTAC (((((....)))))
A) -32.4

Q) Find the measured folding enthalpy of GACCGCGAAAGCGCTGTC ((((((....)))..))) and report it.
A) -14.3

Q) Specify reported folding enthalpy for the sequence shown: TGGCAGAAATGCCA (((((....)))))
A) -23.3

Q) Assign folding enthalpy to the following record: GTTCACTCGAAAGAGAAC (((..(((....))))))
A) -9.99

Q) Identify measured folding enthalpy corresponding to GATGAAGAAATTCATC ((((((....))))))
A) -24.9

Q) Give the reported value of folding enthalpy for this record: GCCATGGGAAACCACAGC ((..(((....)))..))
A) -12.7

* * *

assay: folding enthalpy; higher = less favourable; fluorescence melt of hairpins on a sequencing array, two-state fit; details: sodium 0.088 M
measuredParameter: folding enthalpy (kJ/mol)
Note: unit kJ/mol is implicit; provide only the numeric part.

Q) State its folding enthalpy: GTATTTGGAAACAGATAC ((((.((....)).))))
A) -103

Q) Tell us which folding enthalpy value is on record for GCAAAGCGAAAGCCCTGC (((..((....))..)))
A) -43

Q) Identify the reported folding enthalpy for the following entry. GACTTTCCGAAAGGAGTC (((..(((....))))))
A) -54.6

Q) Determine its reported folding enthalpy: GTTAATGGAAACATTGAC ((.((((....)))).))
A) -109

// below: folding enthalpy requested for another sequence
Q) Find the measured folding enthalpy of GTTACCGAAAGGTCTAAC ((((((....)))..))) and report it.
A) -38.2

* * *

Each record here notes measured Tm.
experiment: melting temperature; fluorescence melt of hairpins on a sequencing array, two-state fit, raised by 9.35 °C to match UV melts; conditions: sodium 0.088 M
API: value field is a number in °C; no unit string.

Here is how some sequences turned out for Tm.
Q) Item GCTAGGCGAAAGCAGAGC (((..((....))..))) : provide Tm
A) 53.3

Q) Respond only with Tm recorded for GTATTAGAAATAATAC ((((((....))))))
A) 31.9

Q) Tell me measured Tm for GTCCGCGAAAGCGAGGAC ((((((....)))..))) please.
A) 54.9

Q) Please report Tm for the following sequence: GGTAACGAAAGTTGGACC ((((((....)))..)))
A) 26.8

***
Q) # return recorded Tm for entry GACGGGGGAAACTCCGTC (((((.(....).)))))
A) 58.1

Q) Hello, please tell me recorded Tm for this one: GCTTGCGAAAGCAGAGC ((((((....))).)))
A) 52.7

Q) # return recorded Tm for input GTTTGCCCGAAAGGGAAC (((..(((....))))))
A) 32.5

Q) Name the recorded Tm of the item GATCTCACGAGAGATC ((((((....)))))) in your answer.
A) 52.3

Q) Please indicate Tm recorded for GATCGTTGCGACGATC ((((((....))))))
A) 60.7

Q) Please list Tm recorded for the sequence GCGATGCGAAAGCACAGC ((..(((....)))..))
A) 52

Q) Give Tm for the following sequence: CGCTCGGAAACGAAAGCG ((((((....)))..)))
A) 47.2

Q) Dear colleague, please send me the reported Tm for GATCTCTCCTGAGATC ((((((....)))))) when you can.
A) 55

Q) Given GCGAGCACTCGC ((((....)))) , respond with its Tm.
A) 56.8

Q) Determine its reported Tm: GCTCCAGGAAACTGGGGC ((.((((....)))).))
A) 57.6

Q) Name the recorded Tm of the sequence listed here: GTTGCGGGAAACTGCAGC (.(((.(....).))).)
A) 45

Q) Answer with reported Tm of GCAATCGGAAACGACTGC (((.(((....))).)))
A) 45.1

Q) Fill in reported Tm for this entry: GGCCAGCGAAAGCTAGCC (((.(((....))).)))
A) 56.4

Q) Entry GATCGTAAACACGATC ((((((....)))))) needs its Tm filled in; supply it.
A) 52

Q) Retrieve Tm measured for GCAATCCGAAAGGATGC (((.(((....)))))) and print it.
A) 56.4

Q) Quote Tm reported for GCCCCAGGAAACCAGGGC ((((..(....)..)))) please.
A) 45.6

Q) Return the recorded Tm value; entry: GATCTGTATTCAGATC ((((((....))))))
A) 50.4

* * *

experiment: melting temperature; fluorescence melt of hairpins on a sequencing array, two-state fit, raised by 9.35 °C to match UV melts; conditions: sodium 0.088 M
# strict inequality: Tm < 50 °C yields MET, everything else yields NOT MET

Q) In the record for GTTGTCGGAAACAACAAC (((((.(....).))))) , is Tm less than 50 °C?
A) MET

More entries:
Q) I wonder whether GTCGTCGGAAACGATGAC (((.(((....))).))) has Tm below 50 °C. Can you tell?
A) NOT MET

Q) Please determine if GGGGAAGCGAAAGCTCCC (((..(((....)))))) is below 50 °C in terms of Tm.
A) NOT MET

Q) # TODO verify Tm < 50 °C strictly for this sequence: GACTACGAAAGTAGCGTC ((((((....)))..)))
A) MET

Q) Does this sequence meet the criterion Tm < 50 °C? GCAGGTGGAAACGCCTGC (((((.(....).)))))
A) NOT MET

Q) Given GATCTATGAATAGATC ((((((....)))))) , is recorded Tm strictly lower than 50 °C?
A) MET

Q) Would you kindly verify if Tm of GGACGCGAAAGCGTGTCC ((((((....)))..))) is strictly less than 50 °C?
A) NOT MET

Q) Would you kindly verify if Tm of GTACATCGAAAGATTAC (((.(((....)))))) is strictly less than 50 °C?
A) MET

Q) Is the reported Tm for TTAGTGAAAACTAA (((((....))))) strictly below 50 °C?
A) MET

Q) Below 50 °C on Tm? Entry GTTGGGGGAAACCCTAGC (.(.(((....))).).)
A) MET

* * *

test: melting temperature; fluorescence melt of hairpins on a sequencing array, two-state fit, raised by 9.35 °C to match UV melts; conditions: sodium 0.088 M
measuredParameter: Tm
Be sure to follow the number with its unit.

Q) Write down Tm measured for item GCGTAGGGAAACTTGCGC (((.(.(....).).)))
A) 42.3 °C

Q) Name the recorded Tm of the sequence listed here: GTAGCACGAAAGTGTTAC (((.(((....))).)))
A) 51.5 °C

Q) Output Tm of GCTAGGCGAAAGCATGGC ((.(.((....)).).))
A) 50.1 °C

Q) Read off the recorded Tm for GCGCAGCGAAAGCGGTGC ((.(.((....)).).))
A) 61.5 °C

Q) Supply Tm value. Item: GGACAACGAAAGTTTTCC (((.(((....))).)))
A) 41.2 °C

***
Q) Read off the recorded Tm for GCACGGCGAAAGCATTGC (((..((....))..)))
A) 39.9 °C

Q) Fill in reported Tm for this entry: GATCCCGACTGGGATC ((((((....))))))
A) 65.8 °C

Q) Tell me Tm reported for GGTACCGAAAGGTGGACC ((((((....)))..)))
A) 37.8 °C

Q) Read off the recorded Tm for GGGTTGTCGAAAGACCCC (((..(((....))))))
A) 42.7 °C

Q) Indicate the recorded Tm value for this sequence: GGCTACGAAAGTATGGCC ((((((....)))..)))
A) 47.3 °C

Q) Return reported Tm. Input sequence: GATCCTGGCAAGGATC ((((((....))))))
A) 63.3 °C

Q) Provide only the value of recorded Tm for GGTGAGGAAACTCACC ((((((....))))))
A) 61.6 °C
